test system: female adult common house mosquitoes (Culex pipiens pallens); experiment: Example 1: spontaneous volatilization efficaciousness test in 33 m^3 room (knockdown, KT50); type: in vivo; conditions: elapsed time 1200 hr
measurementName: KT50
Show the value, then the unit it is measured in.

- compound: "Cc1c(F)c(F)c(COC(=O)C2C(C=C(F)Cl)C2(C)C)c(F)c1F (stereo not shown)"
  KT50: "11.50 min"
- compound: "CC=CC1C(C(=O)OCc2c(F)c(F)c(COC)c(F)c2F)C1(C)C (stereo not shown)"
  KT50: "8.80 min"

Prompt line: Consider the compound shown here: CC1(C)[C@H](C=C(Cl)Cl)[C@H]1C(=O)OCc1c(F)c(F)cc(F)c1F [Transfluthrin, reference compound] What is its recorded KT50?
Response line: 20.40 min

Prompt line: Consider the compound shown here: C#CC(OC(=O)C1C(C=C(Cl)Cl)C1(C)C)C(F)=CCC (stereo not shown) What is its recorded KT50?
Response line: 8.00 min

====

assay: Comparative vapor pressure tests by gas chromatography; type: physicochemical; details: 60° C. initial, 5° C. per minute up to 250° C., non-polar methyl silicon polymer filler
Consider the following compounds and their measured Retention Time (gas chromatography, as comparison of vapor pressure) readings.
Unit min implied. Number only.

Prompt line: Consider the compound shown here: C#CC(OC(=O)C1C(C=C(C)C)C1(C)C)/C(C)=C/CC (centres unmarked) [Empenthrin] What is its recorded Retention Time (gas chromatography, as comparison of vapor pressure)?
Response line: 20.1

Prompt line: Consider the compound shown here: C#CCC1=C(C)C(OC(=O)C2C(C=C(C)C)C2(C)C)CC1=O (stereo not drawn) [d,d-T80-prallethrin] What is its recorded Retention Time (gas chromatography, as comparison of vapor pressure)?
Response line: 27.1

Prompt line: Consider the compound shown here: CC1(C)[C@H](C=C(Cl)Cl)[C@H]1C(=O)OCc1c(F)c(F)cc(F)c1F [Transfluthrin, reference compound] What is its recorded Retention Time (gas chromatography, as comparison of vapor pressure)?
Response line: 23.6

Prompt line: Consider the compound shown here: CC=CC1C(C(=O)OCc2c(F)c(F)c(COC)c(F)c2F)C1(C)C (centres unmarked) [Sample Chemical A] What is its recorded Retention Time (gas chromatography, as comparison of vapor pressure)?
Response line: 25.1

Prompt line: Consider the compound shown here: Cc1c(F)c(F)c(COC(=O)C2C(C=C(F)Cl)C2(C)C)c(F)c1F (centres unmarked) [Sample Chemical C] What is its recorded Retention Time (gas chromatography, as comparison of vapor pressure)?
Response line: 24.5

====

test system: female adult common house mosquitoes (Culex pipiens pallens); experiment: Example 1: spontaneous volatilization efficaciousness test in 33 m^3 room (knockdown, KT50); assay type: in vivo; settings: elapsed time 504 hr
measurementName: KT50 (min)
Unit min implied. Number only.

Worked examples follow.
- compound: "CC1(C)[C@H](C=C(Cl)Cl)[C@H]1C(=O)OCc1c(F)c(F)cc(F)c1F [Transfluthrin, reference compound]"
  measurementName: "KT50"
  number: 13.40
- compound: "C#CC(OC(=O)C1C(C=C(Cl)Cl)C1(C)C)C(F)=CCC (stereo not shown)"
  measurementName: "KT50"
  number: 7.48
- compound: "Cc1c(F)c(F)c(COC(=O)C2C(C=C(F)Cl)C2(C)C)c(F)c1F (stereo not shown)"
  measurementName: "KT50"
  number: 6.95

Prompt line: Param readout = KT50; param system = female adult common house mosquitoes (Culex pipiens pallens); param query = CC=CC1C(C(=O)OCc2c(F)c(F)c(COC)c(F)c2F)C1(C)C (stereo not shown) ; response: value
Response line: 6.28

====

system: female adult common house mosquitoes (Culex pipiens pallens); test: Example 1: spontaneous volatilization efficaciousness test in 33 m^3 room (knockdown, KT50); type: in vivo; conditions: elapsed time 864 hr
Consider the following compounds and their measured KT50 readings.
Unit min implied. Number only.

Prompt line: Consider the compound shown here: CC1(C)[C@H](C=C(Cl)Cl)[C@H]1C(=O)OCc1c(F)c(F)cc(F)c1F [Transfluthrin, reference compound] What is its recorded KT50?
Response line: 17.20

====

assay: Comparative vapor pressure tests by gas chromatography; format: physicochemical
measurementName: Retention Time (gas chromatography, as comparison of vapor pressure) (min)
Unit min implied. Number only.

Worked examples follow.
- compound: "C=CCC1=C(C)C(OC(=O)C2C(C=C(C)C)C2(C)C)CC1=O (stereo not drawn) [d1,d-T80-allethrin]"
  number: 26.6
- compound: "C=CCC1=C(C)C(OC(=O)C2C(C)(C)C2(C)C)CC1=O (stereo not shown) [Terallethrin]"
  number: 23.3
- compound: "CC(C)=CC1C(C(=O)OCc2cccc(Oc3ccccc3)c2)C1(C)C (stereo not shown) [Phenothorin, reference compound]"
  number: 33.7

Consider now this further compound.
Prompt line: Consider the compound shown here: C#CC(OC(=O)C1C(C=C(Cl)Cl)C1(C)C)C(F)=CCC (stereo not shown) [Sample Chemical B] What is its recorded Retention Time (gas chromatography, as comparison of vapor pressure)?
Response line: 26.4

====

system: female adult common house mosquitoes (Culex pipiens pallens); experiment: Example 1: spontaneous volatilization efficaciousness test in 33 m^3 room (knockdown, KT50); type: in vivo; details: elapsed time 1344 hr
measurementName: KT50
Show the value, then the unit it is measured in.

Worked examples follow.
- molecule: "CC=CC1C(C(=O)OCc2c(F)c(F)c(COC)c(F)c2F)C1(C)C (stereo not shown) [Sample Chemical A]"
  targetOfAssay: "female adult common house mosquitoes (Culex pipiens pallens)"
  measurementName: "KT50"
  result: "9.70 min"
- molecule: "C#CC(OC(=O)C1C(C=C(Cl)Cl)C1(C)C)C(F)=CCC (stereo not shown) [Sample Chemical B]"
  targetOfAssay: "female adult common house mosquitoes (Culex pipiens pallens)"
  measurementName: "KT50"
  result: "8.40 min"
- molecule: "CC1(C)[C@H](C=C(Cl)Cl)[C@H]1C(=O)OCc1c(F)c(F)cc(F)c1F [Transfluthrin, reference compound]"
  targetOfAssay: "female adult common house mosquitoes (Culex pipiens pallens)"
  measurementName: "KT50"
  result: "18.80 min"

Prompt line: Consider the molecule shown here: Cc1c(F)c(F)c(COC(=O)C2C(C=C(F)Cl)C2(C)C)c(F)c1F (stereo not shown) [Sample Chemical C] What is its recorded KT50?
Response line: 12.60 min

====

test system: female adult stegomyia mosquitoes (Aedes albopictus); experiment: Comparative debugging efficaciousness tests: bloodsucking prevention on rats, liquid type electric mosquito repellent utensil; type: in vivo; conditions: relative to d,d-T80-prallethrin (Etoc) = 100
Consider the following compounds and their measured Potency Ratio (Etoc 100), of IC90 Value readings.
Reply briefly: the number, and no unit.

- compound: "C#CC(OC(=O)C1C(C=C(Cl)Cl)C1(C)C)C(F)=CCC (centres unmarked)"
  targetOfAssay: "female adult stegomyia mosquitoes (Aedes albopictus)"
  Potency Ratio (Etoc 100), of IC90 Value: 469.9
- compound: "CC=CC1C(C(=O)OCc2c(F)c(F)c(COC)c(F)c2F)C1(C)C (centres unmarked)"
  targetOfAssay: "female adult stegomyia mosquitoes (Aedes albopictus)"
  Potency Ratio (Etoc 100), of IC90 Value: 496.8
- compound: "C=CCC1=C(C)C(OC(=O)C2C(C=C(C)C)C2(C)C)CC1=O (stereo not drawn) [d1,d-T80-allethrin]"
  targetOfAssay: "female adult stegomyia mosquitoes (Aedes albopictus)"
  Potency Ratio (Etoc 100), of IC90 Value: 9.5
- compound: "C#CC(OC(=O)C1C(C=C(C)C)C1(C)C)/C(C)=C/CC (centres unmarked)"
  targetOfAssay: "female adult stegomyia mosquitoes (Aedes albopictus)"
  Potency Ratio (Etoc 100), of IC90 Value: 1.2

Prompt line: Consider the compound shown here: C#CCc1ccc(COC(=O)C2C(C=C(C)C)C2(C)C)o1 (centres unmarked) What is its recorded Potency Ratio (Etoc 100), of IC90 Value?
Response line: 14.4

Prompt line: Consider the compound shown here: CC1(C)[C@H](C=C(Cl)Cl)[C@H]1C(=O)OCc1c(F)c(F)cc(F)c1F [Transfluthrin, reference compound] What is its recorded Potency Ratio (Etoc 100), of IC90 Value?
Response line: 29.2

Prompt line: Consider the compound shown here: CC(C)=CC1C(C(=O)OCc2c(F)c(F)c(C)c(F)c2F)C1(C)C (centres unmarked) What is its recorded Potency Ratio (Etoc 100), of IC90 Value?
Response line: 5.4

Prompt line: Consider the compound shown here: CC=CC1C(C(=O)OCc2c(F)c(F)c(C)c(F)c2F)C1(C)C (centres unmarked) What is its recorded Potency Ratio (Etoc 100), of IC90 Value?
Response line: 4.3

Prompt line: Consider the compound shown here: COCc1c(F)c(F)c(COC(=O)C2C(C=C(C)C)C2(C)C)c(F)c1F (centres unmarked) What is its recorded Potency Ratio (Etoc 100), of IC90 Value?
Response line: 22.4

Prompt line: Consider the compound shown here: C#CC(OC(=O)C1C(C=C(F)Cl)C1(C)C)C(C)=CCC (centres unmarked) What is its recorded Potency Ratio (Etoc 100), of IC90 Value?
Response line: 3.1
